- measured.on: NAD(P)H dehydrogenase [quinone] 1 (Mus musculus) (UniProt Q64669)
- Sequence (Q64669 whole entry): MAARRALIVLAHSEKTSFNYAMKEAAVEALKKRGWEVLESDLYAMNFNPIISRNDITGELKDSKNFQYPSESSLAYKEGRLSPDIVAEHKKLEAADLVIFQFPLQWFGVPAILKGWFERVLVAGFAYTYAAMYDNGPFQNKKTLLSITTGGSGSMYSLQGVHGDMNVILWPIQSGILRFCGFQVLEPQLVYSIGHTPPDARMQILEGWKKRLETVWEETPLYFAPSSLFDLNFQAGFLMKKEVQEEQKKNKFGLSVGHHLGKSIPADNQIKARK
- assay.info: Induction of QR1 activity in mouse Hepa-1c1c7 cells assessed as drug concentration required to double enzyme activity after 48 hrs by MTT assay
- Type: cell-based
Assign log10 CD to each entry below.
In our notation, the value equals log10 of CD in µM.

Inquiry: // log10 CD lookup, key: Cc1ccc(-c2cc3ccccc3[nH]2)cc1
Reply text: 0.81

Inquiry: Now the same for Fc1ccc(-c2cc3ccccc3[nH]2)cc1
Reply text: 1.25

Inquiry: Now the same for Brc1ccc(-c2cc3ccccc3[nH]2)cc1
Reply text: 0.71

Inquiry: Now the same for Clc1cccc(-c2cc3ccccc3[nH]2)c1
Reply text: 0.34

Inquiry: Now the same for O/N=C/c1c(-c2ccccc2)[nH]c2ccccc12
Reply text: 1.07

Inquiry: Now the same for COc1cc(OC)cc(-c2cc3ccccc3[nH]2)c1
Reply text: 0.05

Inquiry: Now the same for Nc1cccc(-c2cc3ccccc3[nH]2)c1
Reply text: 1.26

Inquiry: Now the same for Clc1ccc(-c2cc3ccccc3[nH]2)cc1
Reply text: 0.44

Inquiry: Now the same for Brc1ccc2[nH]c(-c3ccccc3)cc2c1
Reply text: 0.83

Inquiry: Now the same for N#Cc1ccc2[nH]c(-c3cccnc3)cc2c1
Reply text: 1.49

Inquiry: Now the same for Clc1ccc2[nH]c(-c3ccccc3)cc2c1
Reply text: 0.74

Inquiry: Now the same for Cn1c(-c2ccc(Cl)c(Cl)c2)cc2ccccc21
Reply text: 0.32

Inquiry: Now the same for O=[N+]([O-])c1ccc2[nH]c(-c3ccccc3)cc2c1
Reply text: 0.76
